- System: PPARg DBDmut IVT, anti-PPARg (DBD mutation: PPARg1 K132A/R137A, NR concentration 270 nM)
- ASSAY DETAILS: PBM binding z-score (relative to random genomic background probes); higher = stronger binding; sequences stand for … in GC…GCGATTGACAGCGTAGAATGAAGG
MEASURE: PBM binding z-score
Number only, please.

GCTAATAGTTGAAAGGGCAACCGAATGATTCTCG; -0.27
CCTTACGGGTCTCTGACAGGTTATAGCATTTGGA; -0.237
CGAACGAGGGCATCAGTTGATAGCAAATGCCGAT; -0.142
GTAACGAGGGCAAGTTGATAGCAGAGTTTGATGG; 0.937
ACTTACGGGTCAACGAGGTTATAGGACGCGTATA; 0.791

For PPARg DBDmut IVT, anti-PPARg (DBD mutation: PPARg1 K132A/R137A, NR concentration 270 nM), give PBM binding z-score of the listed sequence: AATATTAGTTGAGACGAGGGCAACCGATAGGTTG
0.786

For PPARg DBDmut IVT, anti-PPARg (DBD mutation: PPARg1 K132A/R137A, NR concentration 270 nM), give PBM binding z-score of the listed sequence: GCTTGTAGATCAAGGTTAAGCAAGACTAAGCTAA
-0.377

For PPARg DBDmut IVT, anti-PPARg (DBD mutation: PPARg1 K132A/R137A, NR concentration 270 nM), give PBM binding z-score of the listed sequence: TCGAGTTGGTTACCAATGGGGCATTCAGCTTTCT
-0.375

For PPARg DBDmut IVT, anti-PPARg (DBD mutation: PPARg1 K132A/R137A, NR concentration 270 nM), give PBM binding z-score of the listed sequence: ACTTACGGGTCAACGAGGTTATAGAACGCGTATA
1.43

For PPARg DBDmut IVT, anti-PPARg (DBD mutation: PPARg1 K132A/R137A, NR concentration 270 nM), give PBM binding z-score of the listed sequence: GGAGACAGGTGAAACGCAGGTAACTCAGGGTGGC
-0.98

Each recorded value in this set is attributed to the supplement of paper PMC6555819.
